- Test system: OVCAR-8 ovarian
- Measurement description: NCI tumour cell line growth inhibition, 384-well format
Quick reference: TGI of the listed items.

Briefly, TGI measured for COCc1c(-c2cc3cc(C)cc(OC)c3s2)c2c(N)ncnn2c1CN1CCNC(=O)C1 : > 100 µM

Summary for this molecule, CC(C)(C)c1ccc(Oc2ccc(N)cn2)cc1 : TGI is > 100 µM

The recorded TGI for entry NCCCC[C@@H]1NC(=O)[C@H](CC(=O)O)NC(=O)CNC(=O)[C@H](CCCN=C(N)N)NC(=O)[C@@H](N)CSSC[C@@H](C(=O)O)NC(=O)[C@H](CC(=O)O)NC(=O)[C@@H]2CCCN2C(=O)CNC1=O equals > 100 µM

For this molecule ( CNC(=O)c1cc(Oc2ccc(NC(=O)Nc3ccc(Cl)c(C(F)(F)F)c3)c(F)c2)ccn1 ), measured TGI is 5.79 µM

TGI reading for COc1ncc(Nc2ncc([C@@H](C)N3CCN(S(C)(=O)=O)CC3)cc2-c2nc(C)nc(N)n2)cc1F : > 100 µM

----------
- Test system: KM12 colon
- Measurement description: NCI tumour cell line growth inhibition, 384-well format
Property label: GI50

Recorded results for 3 compounds are shown here.
Entry smiles	Result
CC(C)(C)c1ccc(Oc2ccc(N)cn2)cc1	44.3 µM
COCc1c(-c2cc3cc(C)cc(OC)c3s2)c2c(N)ncnn2c1CN1CCNC(=O)C1	9.87 µM
COc1ncc(Nc2ncc([C@@H](C)N3CCN(S(C)(=O)=O)CC3)cc2-c2nc(C)nc(N)n2)cc1F	1.36 µM

For the next question, use this compound.
Entry NCCCC[C@@H]1NC(=O)[C@H](CC(=O)O)NC(=O)CNC(=O)[C@H](CCCN=C(N)N)NC(=O)[C@@H](N)CSSC[C@@H](C(=O)O)NC(=O)[C@H](CC(=O)O)NC(=O)[C@@H]2CCCN2C(=O)CNC1=O : GI50 on KM12 colon = > 100 µM

----------
- Test system: BT-549 breast
- Measurement description: NCI tumour cell line growth inhibition, 384-well format; in the data active means GI50 below about 0.43 µM; inactive means the rest
Your reply should match one of these outcome classes. T (active), F (inactive)

Take a look at these entries with their results.
Entry smiles	Label class
CC1(C)CNc2cc(NC(=O)c3cccnc3NCc3ccncc3)ccc21	F
CNC(=O)c1cc(Oc2ccc(NC(=O)Nc3ccc(Cl)c(C(F)(F)F)c3)c(F)c2)ccn1	F
CC(C)(C)c1ccc(Oc2ccc(N)cn2)cc1	F

Outcome logged for COc1ncc(Nc2ncc([C@@H](C)N3CCN(S(C)(=O)=O)CC3)cc2-c2nc(C)nc(N)n2)cc1F in this assay:
T

----------
- System: MCF7 breast
- Measurement description: NCI tumour cell line growth inhibition, 384-well format
Property label: TGI (µM)
Answer in µM, number only, no unit symbol.

Entry smiles	Recorded number
COc1ncc(Nc2ncc([C@@H](C)N3CCN(S(C)(=O)=O)CC3)cc2-c2nc(C)nc(N)n2)cc1F	27.6

The compound identified as CNC(=O)c1cc(Oc2ccc(NC(=O)Nc3ccc(Cl)c(C(F)(F)F)c3)c(F)c2)ccn1 registered its TGI at 5.47

----------
- System: NCI-H522 lung
- Measurement description: NCI tumour cell line growth inhibition, 384-well format
# Lookup of reported GI50 keyed by entry

Example compounds with recorded GI50:
Entry smiles	Result
COCc1c(-c2cc3cc(C)cc(OC)c3s2)c2c(N)ncnn2c1CN1CCNC(=O)C1	3660 nM
NCCCC[C@@H]1NC(=O)[C@H](CC(=O)O)NC(=O)CNC(=O)[C@H](CCCN=C(N)N)NC(=O)[C@@H](N)CSSC[C@@H](C(=O)O)NC(=O)[C@H](CC(=O)O)NC(=O)[C@@H]2CCCN2C(=O)CNC1=O	> 100000 nM
CNC(=O)c1cc(Oc2ccc(NC(=O)Nc3ccc(Cl)c(C(F)(F)F)c3)c(F)c2)ccn1	2830 nM

API: the following record is the query input.
Readout GI50 for COc1ncc(Nc2ncc([C@@H](C)N3CCN(S(C)(=O)=O)CC3)cc2-c2nc(C)nc(N)n2)cc1F , test system NCI-H522 lung, was 1630 nM
